- Target entity: PLK1 (Homo sapiens, UniProt P53350)
- Sequence (P53350 whole entry): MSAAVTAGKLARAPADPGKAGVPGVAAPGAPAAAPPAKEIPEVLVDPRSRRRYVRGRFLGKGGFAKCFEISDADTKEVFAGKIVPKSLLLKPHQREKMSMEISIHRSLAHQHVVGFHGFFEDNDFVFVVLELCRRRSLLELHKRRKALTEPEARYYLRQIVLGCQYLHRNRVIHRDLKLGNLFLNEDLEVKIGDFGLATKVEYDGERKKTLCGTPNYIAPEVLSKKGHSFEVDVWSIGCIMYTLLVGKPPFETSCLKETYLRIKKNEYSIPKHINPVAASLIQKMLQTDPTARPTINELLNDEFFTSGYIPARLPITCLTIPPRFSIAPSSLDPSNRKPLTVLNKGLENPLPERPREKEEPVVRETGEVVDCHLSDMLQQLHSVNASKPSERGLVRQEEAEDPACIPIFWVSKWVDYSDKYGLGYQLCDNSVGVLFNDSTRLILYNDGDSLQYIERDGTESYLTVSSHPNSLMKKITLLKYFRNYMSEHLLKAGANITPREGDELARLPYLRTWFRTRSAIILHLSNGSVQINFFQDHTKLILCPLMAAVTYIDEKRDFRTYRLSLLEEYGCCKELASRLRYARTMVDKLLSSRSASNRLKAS
- Assay remarks: PLK TR-FRET peptide assay, PLK1
- Type: biochemical
- Test settings: GST-PLK1, 60 min reaction
The compounds listed here are annotated with their IC50.

Compound	IC50
CC[C@@H]1C(=O)N(C)c2cnc(-c3ccnc(NC)c3)nc2N1C1CCCC1	< 1 µM
CCC12CCCCN1c1nc(-n3ccnc3-c3ccc(F)cc3F)ncc1N(C)C2=O (racemic)	10 to 50 µM
CC[C@@H]1C(=O)N(C)c2cnc(-c3sc(N)nc3-c3ccn[nH]3)nc2N1C(C)C	1 to 10 µM
CC[C@]12CCCCN1c1nc(-n3ccnc3-c3ccccc3)ncc1N(C)C2=O	> 50 µM
CC[C@@H]1C(=O)N(C)c2cnc(-c3ccnc(OC)c3)nc2N1C1CCCC1	< 1 µM
CC[C@@H]1C(=O)N(C)c2cnc(-n3ccnc3)nc2N1C1CCOCC1	1 to 10 µM
[2H]C([2H])([2H])N1C(=O)C(C([2H])([2H])C([2H])([2H])[2H])N(C([2H])(C([2H])([2H])[2H])C([2H])([2H])[2H])c2nc(-n3ccnc3-c3ccc(C(F)(F)F)cc3)ncc21 (centres unmarked)	1 to 10 µM
CC[C@@H]1C(=O)N(C)c2cnc(-c3ccncc3NS(=O)(=O)c3ccccc3)nc2N1C1CCCC1	10 to 50 µM
CC[C@]12CCCCN1c1nc(-n3ccnc3-c3cc(F)cc(F)c3)ncc1N(C)C2=O	> 50 µM
CC[C@@]12CCCN1c1nc(-n3ccnc3-c3cccc(-c4cccnc4)c3)ncc1N(C)C2=O	10 to 50 µM
CC[C@@H]1C(=O)N(C)c2cnc(-c3cnoc3-c3nccs3)nc2N1C(C)C	10 to 50 µM
CC[C@@]12CCCCN1c1nc(-n3ccnc3)ncc1N(C)C2=O	> 50 µM
[2H]C([2H])([2H])N1C(=O)C(C([2H])([2H])C([2H])([2H])[2H])N(C([2H])(C([2H])([2H])[2H])C([2H])([2H])[2H])c2nc(-n3ccnc3-c3cc(F)cc(F)c3)ncc21 (racemic)	< 1 µM
CC[C@@]12CCC(=O)N1c1nc(-n3ccnc3-c3ccccc3)ncc1N(C)C2=O	> 50 µM
CCC1C(=O)N(C)c2cnc(-c3cn[nH]c3-c3nccs3)nc2N1c1cccc(C#N)c1 (centres unmarked)	1 to 10 µM
CC[C@@H]1C(=O)N(C)c2cnc(N3CCNC(=O)C3)nc2N1C1CCCC1	1 to 10 µM
CC[C@@H]1C(=O)N(C)c2cnc(-c3cccc(C(N)=O)c3)nc2N1C1CCCC1	< 1 µM
CC[C@@H]1C(=O)N(C)c2cnc(-c3ccncc3NC(=O)CC(C)(C)C)nc2N1C(C)C	10 to 50 µM
CC[C@@H]1C(=O)N(C)c2cnc(-c3cnc4[nH]ccc4c3)nc2N1C1CCCC1	< 1 µM
CC[C@@H]1C(=O)N(C)c2cnc(-c3ccncc3NS(=O)(=O)c3ccccc3)nc2N1C(C)C	1 to 10 µM
CC[C@@H]1C(=O)N(C)c2cnc(-n3ccnc3-c3ccc(F)c(F)c3)nc2N1C1CCC1	1 to 10 µM
CC[C@@H]1C(=O)N(C)c2cnc(-c3ccncc3NS(C)(=O)=O)nc2N1C(C)C	> 50 µM
CN1C(=O)C2CC3CC3N2c2nc(-n3ccnc3-c3ccccc3)ncc21 (centres unmarked)	> 50 µM
[2H]C([2H])([2H])N1C(=O)C(C([2H])([2H])C([2H])([2H])[2H])N(C([2H])(C([2H])([2H])[2H])C([2H])([2H])[2H])c2nc(-n3ccnc3-c3ccc(F)cc3)ncc21 (racemic)	1 to 10 µM
[2H]C([2H])([2H])N1C(=O)C(C([2H])([2H])C([2H])([2H])[2H])N(C([2H])(C([2H])([2H])[2H])C([2H])([2H])[2H])c2nc(-c3c[nH]nc3-c3ccccc3)ncc21 (centres unmarked)	< 1 µM
CC[C@@H]1C(=O)N(C)c2cnc(-c3sc(C#N)nc3-c3ccc(F)cc3)nc2N1C(C)C	1 to 10 µM
CC[C@@H]1C(=O)N(C)c2cnc(-n3ccnc3-c3nccs3)nc2N1C1CCC1	1 to 10 µM
CC[C@@H]1C(=O)N(C)c2cnc(-n3cccn3)nc2N1C1CCCC1	1 to 10 µM
CC[C@]12CCCCN1c1nc(-n3ccnc3-c3cccc(F)c3)ncc1N(C)C2=O	> 50 µM
